# Test parameters: human, in vivo
Structures can show the parent of a compound that is named as a salt.
Experimental readout: Eta^2, Recreational drug use vs Ctrough

Known Eta^2, Recreational drug use vs Ctrough results, listed for orientation:
1. Nc1ccn([C@@H]2CS[C@H](CO)O2)c(=O)n1 [3TC, lamivudine] = 0.014
2. CC(C)OC(=O)OCOP(=O)(CO[C@H](C)Cn1cnc2c(N)ncnc21)OCOC(=O)OC(C)C [TDF, tenofovir disoproxil fumarate] = 0.012
3. Nc1nc(=O)n([C@@H]2CS[C@H](CO)O2)cc1F [FTC, emtricitabine] = 0.025

Proceeding to the next compound to report its Eta^2, Recreational drug use vs Ctrough.
input: Consider the compound shown here: Nc1nc(NC2CC2)c2ncn([C@H]3C=C[C@@H](CO)C3)c2n1 [ABC, abacavir] What is its recorded Eta^2, Recreational drug use vs Ctrough?
output: 0.010
